# Target entity: UniProt O39930
# Sequence (O39930 whole entry): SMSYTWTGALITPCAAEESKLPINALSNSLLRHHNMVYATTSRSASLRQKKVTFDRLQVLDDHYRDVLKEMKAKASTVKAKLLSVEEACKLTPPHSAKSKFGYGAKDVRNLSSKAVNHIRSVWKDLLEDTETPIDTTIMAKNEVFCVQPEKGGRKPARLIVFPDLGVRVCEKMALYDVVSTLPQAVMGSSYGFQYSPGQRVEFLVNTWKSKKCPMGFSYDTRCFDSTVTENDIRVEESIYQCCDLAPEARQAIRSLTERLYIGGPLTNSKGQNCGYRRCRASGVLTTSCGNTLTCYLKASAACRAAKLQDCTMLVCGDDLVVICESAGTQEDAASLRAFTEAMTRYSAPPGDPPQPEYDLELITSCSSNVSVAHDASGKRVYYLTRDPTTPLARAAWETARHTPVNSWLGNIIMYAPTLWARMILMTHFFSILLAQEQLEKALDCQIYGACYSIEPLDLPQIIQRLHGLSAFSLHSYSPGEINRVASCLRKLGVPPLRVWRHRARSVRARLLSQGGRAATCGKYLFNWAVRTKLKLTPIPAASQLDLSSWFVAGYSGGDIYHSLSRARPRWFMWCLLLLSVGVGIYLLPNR
# Assay: Inhibitory concentration required to inhibit HCV RNA dependent RNA polymerase Nonstructural protein 5B in the presence of Mn2+ is determined
pIC50: −log10 of the molar value.
Measured property: pIC50

// below: answered compounds
{"Structure string": "COc1nc(-c2cccc(O)c2)nc(C(=O)O)c1O", "pIC50": "< 4.30"}
{"Structure string": "O=c1[nH]c(-c2cccc(O)c2)ncc1O", "pIC50": "< 4.30"}

We next turn to a different compound, shown below.
Returns the measured pIC50 for the input compound. Input: COc1c(C(=O)O)nc(-c2ccc(Cl)cc2)[nH]c1=O
< 4.30
